Where do the numbers come from? From ChEMBL document CHEMBL5678812.

# measurement_target: Serine/threonine-protein kinase PAK 6 (Homo sapiens, UniProt Q9NQU5)
# Sequence (Q9NQU5 whole entry): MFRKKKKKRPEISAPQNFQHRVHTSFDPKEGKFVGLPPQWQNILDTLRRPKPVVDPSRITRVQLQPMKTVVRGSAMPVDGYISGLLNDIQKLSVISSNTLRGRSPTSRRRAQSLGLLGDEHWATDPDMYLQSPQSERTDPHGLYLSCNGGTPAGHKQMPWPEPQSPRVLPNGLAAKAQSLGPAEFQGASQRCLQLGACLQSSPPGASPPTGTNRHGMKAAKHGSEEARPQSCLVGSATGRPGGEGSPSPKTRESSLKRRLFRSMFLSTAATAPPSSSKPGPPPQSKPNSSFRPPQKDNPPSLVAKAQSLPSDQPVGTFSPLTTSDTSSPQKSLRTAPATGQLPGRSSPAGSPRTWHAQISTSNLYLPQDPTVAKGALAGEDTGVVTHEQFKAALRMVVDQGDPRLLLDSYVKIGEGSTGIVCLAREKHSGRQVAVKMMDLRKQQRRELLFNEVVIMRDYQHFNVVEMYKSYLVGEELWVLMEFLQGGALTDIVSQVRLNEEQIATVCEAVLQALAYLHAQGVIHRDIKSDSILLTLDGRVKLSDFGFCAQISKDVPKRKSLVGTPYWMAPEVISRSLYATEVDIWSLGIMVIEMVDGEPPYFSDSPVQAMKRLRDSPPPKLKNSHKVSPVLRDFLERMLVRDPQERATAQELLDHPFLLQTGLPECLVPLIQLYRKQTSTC
# assay: Inhibition of recombinant PAK6 (unknown origin)
pIC50: −log10 of the molar value.
endpoint: pIC50

For the compound Cc1nc(Nc2n[nH]c3c2CN(C(=O)N[C@H](CN(C)C)c2ccccc2)C3(C)C)c2sccc2n1 , what pIC50 is on record?
~7.70

====

# measurement_target: Serine/threonine-protein kinase PAK 2 (Homo sapiens)
# Sequence (Q13177 whole entry): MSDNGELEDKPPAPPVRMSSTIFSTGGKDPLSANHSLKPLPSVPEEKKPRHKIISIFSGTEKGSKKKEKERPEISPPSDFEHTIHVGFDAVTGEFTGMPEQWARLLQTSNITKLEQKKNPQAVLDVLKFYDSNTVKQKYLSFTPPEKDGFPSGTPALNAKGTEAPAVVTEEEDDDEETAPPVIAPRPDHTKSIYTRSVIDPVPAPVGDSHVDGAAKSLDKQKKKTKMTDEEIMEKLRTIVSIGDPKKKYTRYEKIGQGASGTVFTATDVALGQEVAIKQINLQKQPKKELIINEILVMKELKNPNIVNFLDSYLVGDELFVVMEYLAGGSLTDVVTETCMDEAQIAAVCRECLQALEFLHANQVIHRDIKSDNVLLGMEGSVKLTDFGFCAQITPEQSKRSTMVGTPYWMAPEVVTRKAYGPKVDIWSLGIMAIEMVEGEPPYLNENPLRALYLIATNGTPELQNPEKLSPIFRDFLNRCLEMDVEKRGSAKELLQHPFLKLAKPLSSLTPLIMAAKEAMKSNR
endpoint: pKd
Reminder that pKd means the negative base-10 logarithm of the concentration expressed in mol/L.

Param readout= pKd; system= Serine/threonine-protein kinase PAK 2 (Homo sapiens); entry= CC(C)NC(=O)N1CCC(NC2=Nc3cc(F)ccc3N(CC(F)F)c3ccc(Cl)cc32)C1 (configuration not stated) ; returns value.
6.40

Param readout= pKd; system= Serine/threonine-protein kinase PAK 2 (Homo sapiens); entry= CCN1c2ccc(F)cc2N=C(NC2CCN(C(=O)NC(C)(C)C)C2)c2cc(Cl)ccc21 (configuration not stated) ; returns value.
5.96
